- Tested on: Cell membrane
- assay method text: Induction of cytoplasmic membrane depolarization in Staphylococcus aureus ATCC 29213 at 20 ug/ml measured for 12 mins by DiSC35 dye-based fluorescence assay
- Format: subcellular
- condition: dose 20.0 µg/ml
Activity calls are given as the source filed them. No cut-off for these calls is given here.
Respond only with the outcome that fits, drawn from active, inactive

Can you look up the reported call for CCCCCCCCCCCN(C[C@H]1CN(c2ccc(N3CCOCC3)c(F)c2)C(=O)O1)C(=O)[C@@H](N)CCCCN.Cl.Cl for me?
active

Call for entry C[C@@H](O)[C@H]1C(=O)N2C(C(=O)O)=C(S[C@@H]3CN[C@H](C(=O)N(C)C)C3)[C@H](C)[C@H]12 :
inactive

I'd appreciate the recorded outcome for CN[C@H](CC(C)C)C(=O)N[C@H]1C(=O)N[C@@H](CC(N)=O)C(=O)N[C@H]2C(=O)N[C@H]3C(=O)N[C@H](C(=O)N[C@H](C(=O)O)c4cc(O)cc(O)c4-c4cc3ccc4O)[C@H](O)c3ccc(c(Cl)c3)Oc3cc2cc(c3O[C@@H]2O[C@H](CO)[C@@H](O)[C@H](O)[C@H]2O[C@H]2C[C@](C)(N)[C@H](O)[C@H](C)O2)Oc2ccc(cc2Cl)[C@H]1O from this test.
inactive

How did this test come out for CC(=O)NC[C@H]1CN(c2ccc(N3CCOCC3)c(F)c2)C(=O)O1 ?
inactive

----------
- System: Escherichia coli
- assay method text: Antibacterial activity against Escherichia coli ATCC 25922 assessed as reduction in bacterial growth incubated 16 to 20 hrs by CLSI-based broth microdilution method
- Type: functional
- condition: time 16-20 hrs
In this section, each of the molecules is paired with its reported MIC.
Give the number; µg/mL is assumed, so skip it.

CCCCCCCCCN(C[C@H]1CN(c2ccc(N3CCOCC3)c(F)c2)C(=O)O1)C(=O)[C@@H](N)CCCN=C(N)N.Cl.Cl.Cl = 64
CCCCCCCCCCN(C[C@H]1CN(c2ccc(N3CCOCC3)c(F)c2)C(=O)O1)C(=O)[C@@H](N)CCCCN.Cl.Cl = 32

Please examine the following record next.
Output measured MIC for this item: CCCCCCCCCCCN(C[C@H]1CN(c2ccc(N3CCOCC3)c(F)c2)C(=O)O1)C(=O)[C@@H](N)CCCN=C(N)N.Cl.Cl.Cl
8

----------
- System: Enterococcus faecalis
- assay method text: Antibacterial activity against Enterococcus faecalis ATCC 29212 assessed as reduction in bacterial growth incubated 16 to 20 hrs by CLSI-based broth microdilution method
- Assay type: functional
- condition: time 16-20 hrs
Recorded MIC by entry
Express your answer in µg/mL, writing the number without its unit.

Recorded MIC, per entry:
CCCCCCCCCCCN(C[C@H]1CN(c2ccc(N3CCOCC3)c(F)c2)C(=O)O1)C(=O)[C@@H](N)CCCN=C(N)N.Cl.Cl.Cl = 8
CCCCCCCCN(C[C@H]1CN(c2ccc(N3CCOCC3)c(F)c2)C(=O)O1)C(=O)[C@@H](N)CCCCN.Cl.Cl = 64
CCCCCCCCCN(C[C@H]1CN(c2ccc(N3CCOCC3)c(F)c2)C(=O)O1)C(=O)[C@@H](N)CCCN=C(N)N.Cl.Cl.Cl = 32

Identify measured MIC associated with CCCCCCCN(C[C@H]1CN(c2ccc(N3CCOCC3)c(F)c2)C(=O)O1)C(=O)[C@@H](N)CCCCN.Cl.Cl
128

----------
- System: Staphylococcus aureus
- assay method text: Antibacterial activity against methicillin-resistant Staphylococcus aureus clinical isolate 10 assessed as reduction in bacterial growth incubated for 16 to 20 hrs by CLSI-based broth microdilution method
- Type: functional
- condition: time 16-20 hrs
endpoint: MIC (µg/mL)
Write down the numeric answer in µg/mL and omit the unit.

Recorded MIC, per entry:
CCCCCCCCCCCN(C[C@H]1CN(c2ccc(N3CCOCC3)c(F)c2)C(=O)O1)C(=O)[C@@H](N)CCCCN.Cl.Cl = 4
CCCCCCCCCCCC[N+](C)(C)CC(=O)NC[C@H]1CN(c2ccc(N3CCOCC3)c(F)c2)C(=O)O1.[Cl-] = 8

Specify measured MIC for C[C@@H](O)[C@H]1C(=O)N2C(C(=O)O)=C(S[C@@H]3CN[C@H](C(=O)N(C)C)C3)[C@H](C)[C@H]12 .
32

Annotate the compound CCCCCCCCCCCCCC[N+](C)(C)CC(=O)NC[C@H]1CN(c2ccc(N3CCOCC3)c(F)c2)C(=O)O1.[Cl-] with its measured MIC.
8

Respond only with MIC recorded for CCCCCCCCCCCN(C[C@H]1CN(c2ccc(N3CCOCC3)c(F)c2)C(=O)O1)C(=O)[C@@H](N)CCCN=C(N)N.Cl.Cl.Cl
4

----------
- assay method text: Hemolytic activity in sheep RBC incubated for 1 hr
- Format: ADME, cell-based, Ovis aries, Erythrocyte
- condition: sheep red blood cells (erythrocytes)
endpoint: HC50 at 1 h (µg/mL)
Give the quantity in µg/mL, number only.

// known answers, use as guide
CC(=O)NC[C@H]1CN(c2ccc(N3CCOCC3)c(F)c2)C(=O)O1 = 550
CCCCCCCCCCCN(C[C@H]1CN(c2ccc(N3CCOCC3)c(F)c2)C(=O)O1)C(=O)[C@@H](N)CCCCN.Cl.Cl = 100

Retrieve HC50 at 1 h measured for CCCCCCCCCCCCCC[N+](C)(C)CC(=O)NC[C@H]1CN(c2ccc(N3CCOCC3)c(F)c2)C(=O)O1.[Cl-] and print it.
60

----------
Parameter: MIC. Scope: all listed entries.
- Test system: Escherichia coli
- assay method text: Antibacterial activity against Escherichia coli ATCC 25922 assessed as reduction in bacterial growth incubated 16 to 20 hrs by CLSI-based broth microdilution method
- Format: functional
- condition: time 16-20 hrs

CCCCCCCCC[N+](C)(C)CC(=O)NC[C@H]1CN(c2ccc(N3CCOCC3)c(F)c2)C(=O)O1.[Cl-] = 32 µg/mL
CCCCCCCCCN(C[C@H]1CN(c2ccc(N3CCOCC3)c(F)c2)C(=O)O1)C(=O)[C@@H](N)CCCCN.Cl.Cl = 64 µg/mL
CCCC[N+](C)(C)CC(=O)NC[C@H]1CN(c2ccc(N3CCOCC3)c(F)c2)C(=O)O1.[Cl-] = > 128 µg/mL
CN[C@H](CC(C)C)C(=O)N[C@H]1C(=O)N[C@@H](CC(N)=O)C(=O)N[C@H]2C(=O)N[C@H]3C(=O)N[C@H](C(=O)N[C@H](C(=O)O)c4cc(O)cc(O)c4-c4cc3ccc4O)[C@H](O)c3ccc(c(Cl)c3)Oc3cc2cc(c3O[C@@H]2O[C@H](CO)[C@@H](O)[C@H](O)[C@H]2O[C@H]2C[C@](C)(N)[C@H](O)[C@H](C)O2)Oc2ccc(cc2Cl)[C@H]1O [VANCOMYCIN] = 64 µg/mL
CCCCCCCN(C[C@H]1CN(c2ccc(N3CCOCC3)c(F)c2)C(=O)O1)C(=O)[C@@H](N)CCCN=C(N)N.Cl.Cl.Cl = 128 µg/mL

Please indicate MIC recorded for CCCCCCCCCCN(C[C@H]1CN(c2ccc(N3CCOCC3)c(F)c2)C(=O)O1)C(=O)[C@@H](N)CCCN=C(N)N.Cl.Cl.Cl
16 µg/mL

----------
- Test system: Klebsiella pneumoniae
- assay method text: Antibacterial activity against carbapenem-resistant Klebsiella pneumoniae clinical isolate 7 assessed as reduction in bacterial growth incubated for 16 to 20 hrs by CLSI-based broth microdilution method
- Assay type: functional
- condition: time 16-20 hrs
Reported values of MIC for individual entries
Lab book: enter the figure in µg/mL, no units written.

Solved entries (count: 3):
CCCCCCCCCCCCCC[N+](C)(C)CC(=O)NC[C@H]1CN(c2ccc(N3CCOCC3)c(F)c2)C(=O)O1.[Cl-] = 32
CCCCCCCCCCCC[N+](C)(C)CC(=O)NC[C@H]1CN(c2ccc(N3CCOCC3)c(F)c2)C(=O)O1.[Cl-] = 64
CCCCCCCCCCCN(C[C@H]1CN(c2ccc(N3CCOCC3)c(F)c2)C(=O)O1)C(=O)[C@@H](N)CCCN=C(N)N.Cl.Cl.Cl = 32

Alright, here's another compound for you.
Please supply the value of reported MIC for the item CCCCCCCCCCCN(C[C@H]1CN(c2ccc(N3CCOCC3)c(F)c2)C(=O)O1)C(=O)[C@@H](N)CCCCN.Cl.Cl
16

----------
- Test system: Cell membrane
- assay method text: Induction of inner membrane permeabilization in Escherichia coli ATCC 25922 at 20 ug/ml measured for 12 mins by propidium iodide staining based fluorescence microscopic analysis
- condition: dose 20.0 µg/ml
Calls of active or inactive are those of the source. The rule behind the calls is not given here.
// classify into active, inactive

C[C@@H](O)[C@H]1C(=O)N2C(C(=O)O)=C(S[C@@H]3CN[C@H](C(=O)N(C)C)C3)[C@H](C)[C@H]12 [MEROPENEM] = inactive
CC(=O)NC[C@H]1CN(c2ccc(N3CCOCC3)c(F)c2)C(=O)O1 [LINEZOLID] = inactive
CN[C@H](CC(C)C)C(=O)N[C@H]1C(=O)N[C@@H](CC(N)=O)C(=O)N[C@H]2C(=O)N[C@H]3C(=O)N[C@H](C(=O)N[C@H](C(=O)O)c4cc(O)cc(O)c4-c4cc3ccc4O)[C@H](O)c3ccc(c(Cl)c3)Oc3cc2cc(c3O[C@@H]2O[C@H](CO)[C@@H](O)[C@H](O)[C@H]2O[C@H]2C[C@](C)(N)[C@H](O)[C@H](C)O2)Oc2ccc(cc2Cl)[C@H]1O [VANCOMYCIN] = inactive

Field: outcome | Entry: CCCCCCCCCCCN(C[C@H]1CN(c2ccc(N3CCOCC3)c(F)c2)C(=O)O1)C(=O)[C@@H](N)CCCCN.Cl.Cl
active
